Target: Virion infectivity factor (Human immunodeficiency virus type 1 group M subtype B (isolate BH10)) + Virion infectivity factor (Human immunodeficiency virus type 1 group M subtype B (isolate BRU/LAI)) + Virion infectivity factor (Human immunodeficiency virus type 1 group M subtype B (isolate PCV12)) + Virion infectivity factor (Human immunodeficiency virus type 1 group M subtype B (isolate HXB2)) + DNA dC->dU-editing enzyme APOBEC-3G (Homo sapiens) (UniProt P69720+P69721+P69722+P69723+Q9HC16)
Experiment: inhibitors of Vif binding to APOBEC3G peptide, primary screen, biochemical, TR-FRET, GST-Vif 1-94, biotin-A3G peptide, dose response retest (AID 1117319);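 also: Vif residues 1-94 fused to GST binding biotinylated APOBEC3G peptide 110-148; 0% = full assay without inhibitor and 100% = GST in place of GST-Vif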
Settings: hits give high values
Hit rate of the full screen: of about 260,000 compounds, about 1,500 (0.58%) were called active. Roughly 5% stayed inconclusive and do not appear here. A selection follows. Measured potencies and affinities stand elsewhere.
Reported values of inhibition for individual entries
Respond with the bare value in %.

Before answering, review these 4 worked examples.
molecule=CC(C)C(=O)Nc1nnc(-c2ccco2)s1 readout_number=-4.43
molecule=CCn1c(SCC(=O)NNC(=O)c2ccc(OC)cc2)nnc1-c1ccco1 readout_number=-0.44
molecule=CC(C)c1ccc(NC(=O)Cc2cn(C)c3ccccc23)cc1 readout_number=4.75
molecule="N#Cc1ccc(C(=O)NC2CCCc3ccccc32)cc1 (centres undefined)" readout_number=5.64

Q) Look at this molecule and give its reported inhibition. `COc1ccc(CN(C)C2CCCCC2)c(C)c1C`
A) -2.5

Q) Name the reported inhibition value associated with the molecule `CCCCn1c(=NC(=O)c2ccc3c(c2)OCO3)c(C#N)cc2c(=O)n3cccc(C)c3nc21`
A) 6.53

Where do the numbers come from? From PubChem BioAssay AID1117319.
